test_target: Human M4 (Homo sapiens)
procedure_details: mAChR M4 cell-based functional assay (calcium flux, potentiation of EC20 acetylcholine response)
test_conditions: CHO-K1 cells with human M4 and Gqi5; increase in EC20 acetylcholine response
recorded_metric: pEC50
Scale note: pEC50 = -log10(concentration in M).

I have this compound here, Cc1nc(C2CC2)nc2sc3c(NCc4ccc(F)c(F)c4)nccc3c12 [Compound 29] , and I need its recorded pEC50.
5.17

Need pEC50 of CCN(CC)C(=O)c1ccc(CNc2nccc3c2sc2nc(C)nc(C)c23)cc1 [Compound 23] , thanks.
5.37

Reported pEC50, compound Cc1nc(C2CC2)nc2sc3c(NCc4ccc(C(C)(C)O)c(F)c4)nccc3c12 [Compound 27] : ____
5.64

Need pEC50, item Cc1nc(C)c2c(n1)sc1c(NCc3ccc(C(C)(O)C4CC4)cc3)ncnc12 (centres unmarked) [Compound 7]
5.68

What value of measured pEC50 is listed for Cc1nc(C)c2c(n1)sc1c(NCc3ccc(C(C)(C)O)cc3F)nccc12 [Compound 22] ?
6.08

Give its pEC50 value. Item: Cc1nc(C)c2c(n1)sc1c(NCc3ccc(C4(O)CCC4)cc3)ncnc12 [Compound 6]
5.69

What value of measured pEC50 is listed for Cc1nc(C)c2c(n1)sc1c(NC3CCCC3)ncnc12 [Compound 4] ?
6.25

Given the compound Cc1nc(C2CC2)nc2sc3c(NC4CCCC4)nccc3c12 [Compound 39] , what is its reported pEC50?
5.73

Query (compound): Cc1nc(C)c2c(n1)sc1c(N3CCC(F)(F)CC3)ncnc12 [Compound 21] ; field requested: pEC50
5.85

Requested field: pEC50. Item: Cc1nc(C)c2c(n1)sc1c(N3CCCC3)nccc12 [Compound 11]
7.14

What value of pEC50 has been reported for the following compound? Cc1nc(C)c2c(n1)sc1c(N3CCC3)ncnc12 [Compound 16]
5.84

Query: pEC50; subject: COc1ccc(CNc2ncnc3c2sc2nc(C)nc(C)c23)cc1F [Compound 3]
5.94

Could you tell me which pEC50 is on file for Cc1nc(C2CC2)nc2sc3c(N4CCOCC4)nccc3c12 [Compound 30] ?
6.35

Give the measured pEC50 of Cc1nc(C2CC2)nc2sc3c(N4CCCC4)nccc3c12 [Compound 38] .
6.00

Entry Cc1nc(C)c2c(n1)sc1c(N3CC4CC4C3)ncnc12 (centres unmarked) [Compound 8] has what pEC50?
6.81

Bench note: what pEC50 did Cc1nc(C)c2c(n1)sc1c(N3CCCC3)ncnc12 [Compound 2] show?
6.54

Any idea what pEC50 was measured for Cc1nc(C)c2c(n1)sc1c(N3CCCCC3)nccc12 [Compound 12] ?
7.14

For Cc1nc(C)c2c(n1)sc1c(NCc3ccc(F)c(F)c3)ncc(Cl)c12 [Compound 43] , what is its reported pEC50?
5.36

---

test_target: P450 3A4 (Homo sapiens, UniProt P08684)
Sequence (P08684 whole entry): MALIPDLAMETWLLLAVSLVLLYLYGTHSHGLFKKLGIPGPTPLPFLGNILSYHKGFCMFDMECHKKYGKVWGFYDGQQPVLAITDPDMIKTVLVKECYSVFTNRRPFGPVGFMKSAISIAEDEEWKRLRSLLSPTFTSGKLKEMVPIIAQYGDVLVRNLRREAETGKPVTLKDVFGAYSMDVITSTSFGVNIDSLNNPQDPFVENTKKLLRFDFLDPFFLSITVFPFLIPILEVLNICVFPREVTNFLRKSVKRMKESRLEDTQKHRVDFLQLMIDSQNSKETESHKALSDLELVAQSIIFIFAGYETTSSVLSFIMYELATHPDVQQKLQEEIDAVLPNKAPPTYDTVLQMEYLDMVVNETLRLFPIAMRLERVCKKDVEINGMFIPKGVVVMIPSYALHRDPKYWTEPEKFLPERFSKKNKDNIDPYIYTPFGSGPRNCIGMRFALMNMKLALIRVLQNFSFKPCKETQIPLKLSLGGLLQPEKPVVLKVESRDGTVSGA
recorded_metric: IC50
Write the quantity with the unit trailing the number.

Which measured IC50 belongs to Cc1nc(C)c2c(n1)sc1c(NCc3ccc(C(C)(C)O)cc3)ncnc12 [Compound 1] , tested on P450 3A4 (Homo sapiens, UniProt P08684)?
17 µM

---

test_target: Human M4 (Homo sapiens)
procedure_details: mAChR M4 cell-based functional assay (calcium flux, potentiation of EC20 acetylcholine response)
test_conditions: CHO-K1 cells with human M4 and Gqi5; increase in EC20 acetylcholine response
pEC50: −log10 of the molar value.
Assign criterion met whenever pEC50 does not fall below 6; assign criterion not met whenever it does.

API: above_or_equal(metric=pEC50, cutoff=6) for item "Cc1nc(C)c2c(n1)sc1c(NCc3ccc(C(C)(C)O)cc3)ncc(Cl)c12"
criterion not met

Determine whether measured pEC50 meets or exceeds 6 for "Cc1nc(C)c2c(n1)sc1c(NCc3ccc(C(C)(C)O)c(F)c3)nccc12"
criterion met

Does "Cc1nc(C)c2c(n1)sc1c(N3CCC(F)(F)C3)ncnc12" have a reported pEC50 of at least 6?
criterion met

Could you please find out whether "Cc1nc(C)c2c(n1)sc1c(N3CCOCC3)ncnc12" has pEC50 that meets 6 or exceeds it?
criterion not met

---

Please respond with reported EC50 for every item in the list.
test_target: Human M4 (Homo sapiens)
Sequence (P08173 1-479): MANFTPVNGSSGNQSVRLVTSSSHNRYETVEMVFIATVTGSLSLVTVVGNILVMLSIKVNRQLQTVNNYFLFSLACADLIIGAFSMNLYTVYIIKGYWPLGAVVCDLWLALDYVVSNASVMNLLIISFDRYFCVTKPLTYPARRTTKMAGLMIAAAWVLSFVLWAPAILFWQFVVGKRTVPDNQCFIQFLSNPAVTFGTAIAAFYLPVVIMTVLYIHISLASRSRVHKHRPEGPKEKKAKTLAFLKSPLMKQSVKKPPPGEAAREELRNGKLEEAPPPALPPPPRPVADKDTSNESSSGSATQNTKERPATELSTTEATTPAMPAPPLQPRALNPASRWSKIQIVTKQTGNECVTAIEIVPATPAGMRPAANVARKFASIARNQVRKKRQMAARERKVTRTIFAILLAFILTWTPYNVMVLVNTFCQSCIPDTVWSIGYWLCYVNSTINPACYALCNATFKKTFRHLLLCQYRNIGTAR
procedure_details: mAChR M4 cell-based functional assay (calcium flux, potentiation of EC20 acetylcholine response)
test_conditions: CHO-K1 cells with human M4 and Gqi5; increase in EC20 acetylcholine response
Report only the number, with the unit µM understood.

EC50 for "CCc1nc(C)c2c(n1)sc1c(NCc3ccc(C(C)(C)O)cc3)nccc12" ?
0.601

Would you mind telling me what EC50 value was observed for "Cc1nc(C)c2c(n1)sc1c(N3CCC(F)(F)C3)nccc12" ?
0.042

So what does the record say about EC50 for "COc1ccc(CNc2nccc3c2sc2nc(C)nc(C)c23)cc1F" ?
0.169

# query: EC50 of entry "Cc1nc(C)c2c(n1)sc1c(N3CC4(COC4)C3)ncnc12"
1.58

---

test_target: Human M4 (Homo sapiens, UniProt P08173)
Construct: expressed in transfected cells
Sequence (P08173 1-479): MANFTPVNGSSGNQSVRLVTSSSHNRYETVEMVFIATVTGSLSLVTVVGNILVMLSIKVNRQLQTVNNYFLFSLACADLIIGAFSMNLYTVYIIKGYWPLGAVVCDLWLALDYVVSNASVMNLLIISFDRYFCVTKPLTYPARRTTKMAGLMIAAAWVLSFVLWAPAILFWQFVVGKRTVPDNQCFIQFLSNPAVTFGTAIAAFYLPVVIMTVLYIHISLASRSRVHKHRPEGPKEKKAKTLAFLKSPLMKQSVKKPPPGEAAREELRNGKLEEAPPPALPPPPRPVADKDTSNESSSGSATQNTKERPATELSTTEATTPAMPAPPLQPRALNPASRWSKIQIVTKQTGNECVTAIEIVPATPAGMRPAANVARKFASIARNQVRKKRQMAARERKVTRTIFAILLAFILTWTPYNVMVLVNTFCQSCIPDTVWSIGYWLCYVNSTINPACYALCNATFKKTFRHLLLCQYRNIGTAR
procedure_details: mAChR M4 cell-based functional assay (calcium flux, potentiation of EC20 acetylcholine response)
test_conditions: % ACh maximum at 30 μM; human M4
recorded_metric: Emax at 30 µM

What value of Emax at 30 µM has been reported for the following molecule? "Cc1nc(C)c2c(n1)sc1c(NCc3ccc(C(C)(C)O)cc3)ncc(C#N)c12"
66.7%

For the molecule "Cc1nc(C2CC2)nc2sc3c(N4CCC(F)CC4)nccc3c12" , what Emax at 30 µM is on record?
73%

Return reported Emax at 30 µM; argument: "Cc1nc(C)c2c(n1)sc1c(NC3CCCC3)nccc12"
73.3%

Need Emax at 30 µM, item "Cc1nc(C)c2c(n1)sc1c(NCc3ccc(C(C)(C)O)cc3)nccc12"
80.5%

// returns reported Emax at 30 µM for input "Cc1nc(CC(C)C)nc2sc3c(NCc4ccc(C(C)(C)O)cc4)nccc3c12"
66.4%

Give the measured Emax at 30 µM of "Cc1nc(C)c2c(n1)sc1c(N3CCC3)ncnc12" .
59.9%

---

Please provide measured EC50 for the entries that follow.
test_target: UniProt P08173
procedure_details: mAChR M4 cell-based functional assay (calcium flux, potentiation of EC20 acetylcholine response)
test_conditions: CHO-K1 cells with human M4 and Gqi5; increase in EC20 acetylcholine response
Kindly provide the numeric value in nM only, without the unit symbol.

What measured EC50 goes with [2H]C([2H])(Nc1ncnc2c1sc1nc(C)nc(C)c12)c1ccc(C(C)(C)O)cc1 [Compound 5] ?
1370

Requested field: EC50. Item: Cc1nc(C)c2c(n1)sc1c(NC3CCC3)ncc(Cl)c12 [Compound 44]
997

# input molecule: Cc1nc(C)c2c(n1)sc1c(NCc3ccc(C(C)(C)O)cc3)ncnc12 [Compound 1] ; wanted: its EC50
1250

Name the recorded EC50 for Cc1nc(C)c2c(n1)sc1c(NCc3ccc(C(C)(C)O)cc3)ncc(C#N)c12 [Compound 46] .
734
